Test Method Notes: Tmax in ICR (CD-1) mouse at […], po via gavage by mass spectrometric method
Type: ADME, organism-based
Condition Parameters: in vivo
Recorded Metric: Tmax (min)
The reply should contain only the number, in min.

stdin: Quick check: Tmax of Cc1ccc2c(c1)CCN2C(=O)c1ccc2c(n1)N(C1CC1)C(C)C(=O)N2C (stereo unspecified) ?
stdout: 19.8

These measurements were taken from ChEMBL document CHEMBL4196075.
